test system: Candida glabrata; test: Minimal Inhibitory Concentration (MIC) assay, broth microdilution per CLSI; assay type: cell-based; conditions: Nakaseomyces glabratus; 48 hr reading (second value of cell 24 hr/48 hr); read-out: Minimum Inhibitory Concentrations against Yeast Isolates, Candida glabrata;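 also: two read times 24 hr and 48 hr of incubation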
Documented MIC across a set of compounds
measured endpoint: MIC

- compound: "COCCOCCOCCOCCOCCOc1ccc(CCCCc2ccc(CC(=O)NO)cc2)cc1"
  subject of test: "Candida glabrata"
  measured endpoint: "MIC"
  reported measurement: "> 64 µg/mL"
- compound: "Cn1cnc(CNC(=O)c2ccc(CCCCc3ccc(CC(=O)NO)cc3)cc2)c1"
  subject of test: "Candida glabrata"
  measured endpoint: "MIC"
  reported measurement: "> 8 µg/mL"
- compound: "O=C(Cc1ccc(CCCCc2ccc(CC(=O)NO)cc2)cc1)NO"
  subject of test: "Candida glabrata"
  measured endpoint: "MIC"
  reported measurement: "> 8 µg/mL"
- compound: "O=C(Cc1ccc(C(F)CCCc2ccccc2)cc1)NO (centres unmarked)"
  subject of test: "Candida glabrata"
  measured endpoint: "MIC"
  reported measurement: "4 µg/mL"
- compound: "COCCOCCOCC(=O)Nc1ccc(CCCCc2ccc(CC(=O)NO)cc2)cc1"
  subject of test: "Candida glabrata"
  measured endpoint: "MIC"
  reported measurement: "> 64 µg/mL"
